# Test system: SR leukemia
# experimental.details: NCI tumour cell line growth inhibition, 48 h
result.type: TGI

Prompt: Form field: reported TGI of Cc1noc(C)c1-c1ccc2[nH]c(=O)n3c2c1OC[C@@H]3c1ccccn1
Completion: > 100 µM

Prompt: // returns reported TGI for input Cc1ncc([N+](=O)[O-])n1CCNC(=O)CCCCn1ccnc1[N+](=O)[O-]
Completion: > 100 µM

Prompt: I have this molecule here, Oc1c2c(c(O)c3ccccc13)=N[C@@H](c1ccccc1)[C@H](c1ccccc1)N=2 , and I need its recorded TGI.
Completion: > 100 µM

Prompt: What measured TGI goes with CCOC(=O)Cc1nn2c(=O)cc(C)nc2s1 ?
Completion: > 100 µM

Prompt: Requested field: TGI. Item: CCOc1cccc2nc3cccc(C(=O)NCCN(C)C)c3nc12
Completion: 26.1 µM

Prompt: Fill in the blank: the reported TGI of COn1cc(CO)c2ccccc21 is ____.
Completion: > 100 µM

Prompt: I am curious: what TGI value has been reported for COC(=O)C(=O)C(C(=O)C(=O)Nc1cc([N+](=O)[O-])ccc1C#N)c1nc2ccccc2[nH]c1=O (stereo not given) ?
Completion: > 100 µM

Prompt: Report TGI for COc1cc(/C=C2\CC3C4CC=C5CC(N6CCCC6)CC[C@]5(C)C4CC[C@]3(C)C2OC(C)=O)ccc1OCCN1CCCC1 (stereo not given in full) please.
Completion: 4.01 µM

Prompt: Which TGI value is on record for COc1ccccc1C(=O)c1ccc2ccccc2c1 ?
Completion: 16.1 µM

Prompt: Given the entry CCOC(=O)c1ccc(C(=O)/C(C(=O)OC(C)(C)C)=C2\CCCN2C)n1C , report its measured TGI.
Completion: > 100 µM

Prompt: // lookup TGI for CN1CCN(Cc2ccc(NC(=O)c3ccc(C(C)(C)C)c(C#Cc4cnc5cccnn45)c3)cc2C(F)(F)F)CC1
Completion: 0.512 µM

Prompt: For the molecule shown here, C=C1CC2C(=O)N(c3ccccc3)C(=O)C2CC1n1[nH]c(=O)n(Cc2ccccc2)c1=O (stereo not given) , give the reported TGI.
Completion: > 100 µM

Prompt: Returns the measured TGI for the input molecule. Input: O=c1c2ccccc2c2c3c1cccc3c1cccc3c(=O)c4ccccc4c2c31
Completion: > 100 µM

Prompt: Dear colleague, I am looking for the recorded TGI of the following molecule: Cc1c(C(=O)NN)nnn1-c1ccnc2c(C(F)(F)F)cccc12
Completion: > 100 µM

Prompt: Request the reported TGI associated with COc1ccc(C(=O)C(C(=O)CCC(=O)Nc2cccc(C(F)(F)F)c2)c2ccccc2)cc1 (stereo not given)
Completion: > 100 µM

====

# Test system: IGROV1 ovarian
# experimental.details: NCI tumour cell line growth inhibition, 48 h
What TGI was measured for each of the following?

Prompt: Query (compound): CCCSc1cc(Cl)nc(N)n1 ; field requested: TGI
Completion: > 100 µM

Prompt: Name the reported TGI value associated with the compound COc1ccc(C2C(N)=NCC2c2ccccn2)cc1 (stereo not drawn)
Completion: > 100 µM

Prompt: For the compound shown here, CN1CCN(C)C1c1cccc(C2N(C)CCN2C)c1 , give the reported TGI.
Completion: > 100 µM

====

# Test system: M14 melanoma
# experimental.details: NCI tumour cell line growth inhibition, 48 h
result.type: TGI

Prompt: Field request: TGI | item: O=C(Nc1ccc(S(=O)(=O)N[C@@H](C(=O)O)c2ccccc2)cc1)c1ccc(F)cc1
Completion: > 100 µM

Prompt: # lookup: TGI of Cc1cc2c(cc1Cl)SC(NNc1cnc3ccccc3n1)=NS2(=O)=O
Completion: > 100 µM

Prompt: Field request: TGI | item: C=C(COC(C)=O)CC(/C=C(\C)CCC=C(C)C)OC(C)=O (configuration not stated)
Completion: > 100 µM

Prompt: Using the record for Cc1ncc(NC(=O)c2ccc(CN3CCN(C)CC3)c(C(F)(F)F)c2)cc1Nc1nccc(-c2cccnc2)n1 , report its TGI.
Completion: 22.7 µM

Prompt: Suppose we examine the compound O=P(O)(O)C(O)(Cn1ccnc1)P(=O)(O)O ; what TGI value has been reported?
Completion: > 100 µM

Prompt: Would you mind telling me what TGI value was observed for CN1c2ccccc2C(=O)NC12CCN(CC1COc3ccccc3O1)CC2 (configuration not stated) ?
Completion: > 100 µM

Prompt: For CCOC1NC(=O)c2ccccc21 (configuration not stated) , what is its reported TGI?
Completion: > 100 µM

Prompt: Fill in: TGI of CC1=C(C)C(=O)O[C@@H]([C@](C)(O)[C@]2(O)CC[C@@]3(O)[C@@H]4C[C@H]5O[C@]56CC=CC(=O)[C@]6(C)[C@H]4CC[C@]23C)C1 is ___
Completion: 1.67 µM

Prompt: Dear colleague, I am looking for the recorded TGI of the following compound: CNc1nc(NC2CCCC2)nc(Sc2ccc(OC)cc2)n1
Completion: > 10 µM

Prompt: Would you mind telling me what TGI value was observed for COC(=O)c1sc2ncc3c(c2c1N)CC(C)CC3 (configuration not stated) ?
Completion: > 100 µM

Prompt: I have this compound here, CC[P+](C#Cc1ccccc1)(c1ccccc1)c1ccccc1 , and I need its recorded TGI.
Completion: 3.56 µM

Prompt: Returns the measured TGI for the input compound. Input: CN(C)C(=S)/N=c1\ss/c(=N\S(=O)(=O)c2ccccc2)n1-c1ccccc1
Completion: > 100 µM

Prompt: So what's the measured TGI for this one? O=C(NN1C(=O)CSC1c1ccc(Cl)c(Cl)c1)c1ccncc1 (configuration not stated)
Completion: > 100 µM

Prompt: So what does the record say about TGI for COc1cc(-c2cn(C)c(=O)c(C)c2C)cc(OC)c1CN1CC[C@H](N2CCN(c3ccc(N[C@H]4CCC(=O)NC4=O)cc3F)CC2)C(F)(F)C1 ?
Completion: 27.7 µM

Prompt: May I ask what TGI has been recorded for O=CN(O)CC(=O)O ?
Completion: > 100 µM

Prompt: Tell me the measured TGI of COc1ccc(/C(C)=N/NC(=S)N(C)C)c(O)c1 , please.
Completion: > 100 µM

Prompt: // returns reported TGI for input Oc1c(Br)cc(CN(Cc2cc(Br)c(O)c(Br)c2)C2CCCCC2)cc1Br
Completion: > 100 µM

Prompt: I am curious: what TGI value has been reported for Oc1ccc(Cc2ccccc2)c2cccnc12 ?
Completion: 10.6 µM

Prompt: What TGI value was documented for this compound, CCOC(=O)c1[nH]c2nc(SC)nc(NC)c2c1N ?
Completion: > 100 µM

Prompt: Fill in the blank: the reported TGI of Clc1ccc(OCc2nnc3n2N=C(c2ccc(Cl)cc2Cl)CS3)c(Cl)c1 is ____.
Completion: 51 µM

Prompt: Query: TGI; subject: CCCCCC(C(O)C#N)C(O)(C(F)(F)F)C(F)(F)F (configuration not stated)
Completion: > 10 µM

Prompt: Any idea what TGI was measured for Cc1cn(C2CC(OC(c3ccccc3)(c3ccccc3)c3ccccc3)C(COC(c3ccccc3)(c3ccccc3)c3ccccc3)O2)c(=O)[nH]c1=O (configuration not stated) ?
Completion: > 100 µM

Prompt: Reported TGI for CN(C)c1nc(=NCc2ccccn2)ss1 : what is it?
Completion: > 10 µM

Prompt: What value of TGI has been reported for the following compound? C=C1CC2C(=O)N(c3ccccc3)C(=O)C2CC1n1[nH]c(=O)n(Cc2ccccc2)c1=O (configuration not stated)
Completion: > 100 µM

Prompt: What value of measured TGI is listed for COc1ccc(-c2cc(-c3cc(Cl)ccc3Cl)nc3nc(=S)[nH]c(N)c23)cc1 ?
Completion: 45 µM

Prompt: What TGI value was documented for this compound, CCCNCc1cc(C)cc2c1nc(N1CCNCC1)n2Cc1cc(C)c(F)c(C)c1 ?
Completion: 3.47 µM

Prompt: What measured TGI goes with O=C1NN=C(c2c[nH]c3ccccc23)CC1NCc1ccccc1 (configuration not stated) ?
Completion: > 100 µM

Prompt: I'd like to know its TGI. The compound in question is CC(C)Cc1c(C#N)c(C#N)c(N)n1Cc1ccccc1
Completion: > 100 µM

Prompt: Name the recorded TGI for CCN(CCO)CCNc1ccc(C)c2sc3cc(Cl)ccc3c(=O)c12 .
Completion: 3.23 µM

Prompt: Any idea what TGI was measured for CCCCCCNc1nc(NCCCCCC)c2[nH]c(NCCCCCC)nc2n1 ?
Completion: 27.9 µM

Prompt: Tell me the measured TGI of COc1cc(-c2c3c(cc4c2OCO4)[C@@H](Nc2ccc4c(c2)Cc2cc(N[C@@H]5c6cc7c(cc6C(c6cc(OC)c(O)c(OC)c6)[C@H]6C(=O)OC[C@H]56)OCO7)ccc2-4)[C@H]2COC(=O)[C@@H]2C3)cc(OC)c1O (some centres not stated) , please.
Completion: 50.3 µM

Prompt: Can you share its TGI? I mean this compound: OCC1OC(O[C@H]2CN3[C@H](O)[C@@H](O)[C@H](O)[C@H]3C2O)C(O)C(O)C1O (some centres not stated)
Completion: > 100 µM

Prompt: Item under review: C=C(C)[C@@H]1CC[C@@]2(C(=O)O)CC[C@]3(C)C(CCC4[C@@]5(C)CCC(OS(=O)(=O)c6ccccc6)C(C)(C)C5CC[C@]43C)C12 (some centres not stated) . Reported TGI?
Completion: 25.1 µM

Prompt: // TGI lookup, key: CCNC(=S)N/N=C/c1ccccn1
Completion: 32.7 µM

Prompt: Recorded TGI of O=C(Nc1cc(-c2ccccc2)[nH]n1)c1ccc(Cl)cc1 , please.
Completion: > 100 µM

Prompt: I am curious: what TGI value has been reported for O=c1oc2ccccc2c2nc3ccccc3cc12 ?
Completion: > 100 µM

Prompt: What value of TGI has been recorded for this entry: CC12CCC(C/C1=N\NC(N)=O)C2(C)C (configuration not stated)
Completion: > 100 µM
